tested on: H9c2 cardiomyocytes, 2-deoxyglucose stress, ATP luminescence, 2 h; test: H9c2 cell survival under 2-deoxyglucose stress – uHTS hits, dose response (AID 588780)
The source made the active and inactive calls.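 How the source made its calls: active means compounds whose fitted half-maximal concentration in the cell-protection dose series is at or below a set limit; inactive means the rest.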
Respond only with the outcome that fits, drawn from active, inactive

Field: example entries. Status: answers known.
Just curious, what result did O=C(NCc1n[nH]c(=O)c2ccccc12)C1CC(=O)N(c2ccccc2)C1 (centres undefined) get here?
inactive

Then O=C(Cn1[nH]c(=O)c2ccccc2c1=O)OCC(=O)N1CCc2ccccc2C1 ?
inactive

And for CCN(CC(=O)Nc1cc(Cl)ccc1C)C(=O)CCc1nc2ccccc2c(=O)[nH]1 ?
inactive

Continuing:
Hi, sorry to bother you, what did the test record for CC(C)Cn1c(N)c(C(=O)COC(=O)CCc2nc3ccccc3c(=O)[nH]2)c(=O)n(C)c1=O ?
inactive

And the next one, Cc1cc(NC(=O)COC(=O)Cn2[nH]c(=O)c3ccccc3c2=O)c([N+](=O)[O-])cc1C ?
inactive

Also Cc1nc(OCc2ccccc2)c2ccccc2n1 ?
active

Repeat for the following compound: CC(=O)Nc1cccc(-c2cc(NC=O)c3ncc(-c4ccc(C(C)=O)cc4)n3c2)c1
inactive

Another compound: CC(=O)Nc1ccc(C(=O)Nc2nc(-c3ccccn3)cs2)cc1
inactive

Query O=C(COc1ccccc1F)Nc1nc(-c2ccccn2)cs1 next
inactive

---

tested on: H9c2 cardiomyocytes, 2-deoxyglucose stress, ATP luminescence, 2 h; experiment: H9c2 cell survival under 2-deoxyglucose stress – uHTS hits, dose response (AID 588780)
Activity calls are given as the source filed them.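 How the source made its calls: active means compounds whose fitted half-maximal concentration in the cell-protection dose series is at or below a set limit; inactive means the rest.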
Outcomes you can answer with include only these: TRUE (active), FALSE (inactive)

Answer briefly: the call reported for COc1ccc(-c2nn(-c3ccccc3)cc2C(=O)Nc2nccs2)cc1 in this assay.
TRUE

Same question for O=c1[nH]c2cccc(F)c2n2cccc12 please.
TRUE

Again, but for O=C1C=C(N2CCOCC2)c2cccc3cccc1c23
FALSE

---
Record request — test call for O=C(CSc1nnc(Cc2cccs2)n1CCc1ccccc1)N1CCCc2ccccc21
FALSE

Also check Cc1ccc(OCC(=O)Nc2nc(-c3ccccn3)cs2)c(C)c1
TRUE

Another compound to look at: COc1cccc(NC(=O)COc2cccc3c2CCNC3=O)c1
FALSE

Moving on to the next compound: O=C(COc1ccc(F)cc1)N/N=C/c1cccc2cccnc12
FALSE

Follow-up item: CC(OC(=O)Cn1[nH]c(=O)c2ccccc2c1=O)C(=O)Nc1ccc(F)cc1 (stereo not drawn)
FALSE

Now try O=C(C[C@@H]1C/C=C/CC[C@@H](Cc2ccc(F)cc2)C(=O)O[C@@H](c2ccccc2)CNC1=O)NCCO .
TRUE

Then what about the compound COc1ccc(CC(=O)N(Cc2ccccc2)c2ccccc2)cc1S(=O)(=O)N1CCOCC1 ?
FALSE

Another compound to check: COc1ccc(CCNC(=O)c2cc(C(=O)c3cc(C)ccc3O)cn(CCc3ccc(OC)cc3)c2=O)cc1
FALSE

Param item: CCC(c1nnnn1Cc1ccco1)N(Cc1cc2cc(C)cc(C)c2[nH]c1=O)CC1CCCO1 (stereo not drawn)
FALSE

---

tested on: H9c2 cardiomyocytes, 2-deoxyglucose stress, ATP luminescence, 2 h; assay: H9c2 cell survival under 2-deoxyglucose stress – uHTS hits, dose response (AID 588780)
Activity calls are given as the source filed them.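 How the source made its calls: active means compounds whose fitted half-maximal concentration in the cell-protection dose series is at or below a set limit; inactive means the rest.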
Measured IC50 accompanies every entry in the list below.

Record request: IC50 value, item COC(=O)c1cc(NC(=O)c2cc3ccccc3o2)cc(C(=O)OC)c1
20.5 µM

Then Cc1ccc2[nH]c(=O)c(CN(Cc3ccco3)S(=O)(=O)c3c(C)ccc4nsnc34)cc2c1 ?
29.7 µM

Continue with CCOc1cc(/C=C/c2nc3ccccc3c(=O)[nH]2)ccc1O
> 79 µM (inactive)

Item: O=C(COc1ccc(Cl)cc1)NCc1n[nH]c(=O)c2ccccc12
> 79 µM (inactive)

Would you mind doing COCCn1cnc2c(c1=O)c1nc3ccccc3nc1n2/N=C/c1cccc(OC)c1 as well?
38 µM (inactive)

Item: O=C(CC1CC2CCC1C2)Nc1nc(-c2ccccn2)cs1 (stereo not drawn)
> 79 µM (inactive)

***
# lookup: IC50 of COc1ccc(NS(=O)(=O)c2ccc3ccccc3c2)c2ncccc12
> 79 µM (inactive)

Param item: CCOC(=O)COc1cccc(C2NC(=O)c3ccccc3O2)c1 (stereo not drawn)
> 79 µM (inactive)

Also check COc1cccc2cc(-c3cc(=O)oc4ccc(OCC(C)=O)cc34)oc12
> 79 µM (inactive)

// next record COc1ccc(C(=O)COC(=O)Cc2n[nH]c(=O)c3ccccc23)c(OC)c1
> 79 µM (inactive)
